The sequences listed here are annotated with their phosphorylation enrichment.
Molecular target: Fes (UniProt P07332)
Sequence (P07332 whole entry, looked up): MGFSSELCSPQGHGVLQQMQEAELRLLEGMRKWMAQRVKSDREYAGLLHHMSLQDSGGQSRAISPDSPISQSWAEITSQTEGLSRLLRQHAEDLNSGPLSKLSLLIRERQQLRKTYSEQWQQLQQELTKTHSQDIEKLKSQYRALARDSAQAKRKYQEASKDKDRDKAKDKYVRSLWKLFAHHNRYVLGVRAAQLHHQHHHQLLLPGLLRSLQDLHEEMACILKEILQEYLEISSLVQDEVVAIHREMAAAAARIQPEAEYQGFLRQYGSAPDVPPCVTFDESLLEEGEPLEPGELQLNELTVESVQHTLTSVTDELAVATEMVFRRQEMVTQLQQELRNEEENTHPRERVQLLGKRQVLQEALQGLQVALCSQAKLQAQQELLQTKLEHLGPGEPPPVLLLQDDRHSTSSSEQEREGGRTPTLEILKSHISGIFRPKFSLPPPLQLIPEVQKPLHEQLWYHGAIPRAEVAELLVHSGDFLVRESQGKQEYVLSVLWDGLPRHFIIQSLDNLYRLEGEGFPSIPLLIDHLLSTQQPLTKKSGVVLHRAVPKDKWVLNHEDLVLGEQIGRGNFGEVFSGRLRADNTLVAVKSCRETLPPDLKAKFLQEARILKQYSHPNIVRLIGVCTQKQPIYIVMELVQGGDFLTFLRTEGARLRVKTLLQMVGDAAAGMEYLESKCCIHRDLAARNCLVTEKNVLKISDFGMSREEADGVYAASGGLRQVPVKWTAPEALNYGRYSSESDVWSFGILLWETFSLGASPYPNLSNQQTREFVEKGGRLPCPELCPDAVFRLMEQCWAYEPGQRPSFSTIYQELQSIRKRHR
Assay: phosphorylation enrichment, bacterial display (enrichment ratio); higher = better substrate or ligand; peptides without Tyr show the background
API note: the answer field is a bare number with no unit suffix.

In the examples that follow, each entry is paired with its recorded phosphorylation enrichment.
- sequenceContent: "TTPGPHRSIFF [MPG_Y71_Y71H_YF]"
  property: "phosphorylation enrichment"
  endpointResult: 0.514
- sequenceContent: "VDYQPYRKHKY [TEX37_Y28]"
  property: "phosphorylation enrichment"
  endpointResult: 0.518
- sequenceContent: "EICTQYEAMAS [GFAP_Y242_R239C]"
  property: "phosphorylation enrichment"
  endpointResult: 1.15

Alright, here's another sequence for you.
// recorded phosphorylation enrichment for SIGLGYHKDLQ [NF1_Y1169] : 0.536

----------
Target: Fes (UniProt P07332)
Test: phosphorylation enrichment, bacterial display (enrichment ratio); higher = better substrate or ligand; peptides without Tyr show the background
property: phosphorylation enrichment
API note: the answer field is a bare number with no unit suffix.

In the examples that follow, each entry is paired with its recorded phosphorylation enrichment.
- sequenceContent: "IDDNEYAYLKA [HNF4A_Y286]"
  property: "phosphorylation enrichment"
  endpointResult: 0.991
- sequenceContent: "YYHCTYKQRMI [CLEC12A_Y242_K244Q]"
  property: "phosphorylation enrichment"
  endpointResult: 1.01
- sequenceContent: "VIERSYTSADG [DHCR7_Y382_C380R]"
  property: "phosphorylation enrichment"
  endpointResult: 0.692
- sequenceContent: "VAVVQYSGTGQ [COL6A1_Y878]"
  property: "phosphorylation enrichment"
  endpointResult: 0.71
- sequenceContent: "ALSDGYWVVSN [TPP1_Y459]"
  property: "phosphorylation enrichment"
  endpointResult: 1.01

// recorded phosphorylation enrichment for KVGNEYITKGQ [MYH7_Y410_V411I] : 0.682

// recorded phosphorylation enrichment for SIKDKYLTALY [KCNH2_Y611_V612L] : 0.707

----------
The sequences listed here are annotated with their SH2 binding enrichment.
Target: c-Src SH2;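 further: peptide library displayed on the E. coli surface as eCPX fusions, selected cells deep-sequenced, score is each peptide's frequency after selection divided by its frequency in the input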
Experiment: SH2 binding enrichment of the phosphorylated peptide, bacterial display (enrichment ratio); higher = better substrate or ligand; peptides without Tyr show the background

In the examples that follow, each entry is paired with its recorded SH2 binding enrichment.
- sequenceContent: "RQGKDYVGAIP [KDR_Y951]"
  endpointResult: 0.488
- sequenceContent: "PRLMLYNPTTF [EGFR_Y270_P266R_YF]"
  endpointResult: 0.505
- sequenceContent: "THEVRYVSAGQ [SLCO4A1_Y77]"
  endpointResult: 0.495

Alright, here's another sequence for you.
// recorded SH2 binding enrichment for EFNLMYDGTKE [IRF6_Y97] : 0.489

----------
Tested on: AncSZ
Assay: phosphorylation enrichment, bacterial display (enrichment ratio); higher = better substrate or ligand; peptides without Tyr show the background
property: phosphorylation enrichment
API note: the answer field is a bare number with no unit suffix.

- sequenceContent: "LGKGSYAKVRS [TSSK2_Y23_K27R]"
  measurementTarget: "AncSZ"
  endpointResult: 1.02
- sequenceContent: "FLGRDYLETLM [DUS3L_Y610_YF]"
  measurementTarget: "AncSZ"
  endpointResult: 0.849
- sequenceContent: "TRDVNYGWTIR [MT-CYB_Y75_I78T]"
  measurementTarget: "AncSZ"
  endpointResult: 1.39

Alright, here's another sequence for you.
// recorded phosphorylation enrichment for SLLTDYSPQLQ [OTC_Y345] : 0.776

----------
Target: Fyn (UniProt P06241)
Sequence (P06241 whole entry, looked up): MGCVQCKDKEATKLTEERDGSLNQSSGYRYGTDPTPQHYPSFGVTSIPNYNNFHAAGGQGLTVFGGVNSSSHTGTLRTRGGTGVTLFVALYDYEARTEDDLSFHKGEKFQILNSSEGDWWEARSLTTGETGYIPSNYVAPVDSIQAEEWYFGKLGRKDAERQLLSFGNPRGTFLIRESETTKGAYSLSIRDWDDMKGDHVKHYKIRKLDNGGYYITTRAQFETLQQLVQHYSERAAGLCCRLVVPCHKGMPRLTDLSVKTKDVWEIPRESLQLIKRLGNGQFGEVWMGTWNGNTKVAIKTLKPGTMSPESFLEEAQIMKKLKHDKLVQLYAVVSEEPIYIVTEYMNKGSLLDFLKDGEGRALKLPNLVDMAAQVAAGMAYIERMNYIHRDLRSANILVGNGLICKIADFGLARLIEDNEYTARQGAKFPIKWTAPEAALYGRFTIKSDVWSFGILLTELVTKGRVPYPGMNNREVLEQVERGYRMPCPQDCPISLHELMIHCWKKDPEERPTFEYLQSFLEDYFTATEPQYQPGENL
Assay: phosphorylation enrichment, bacterial display (enrichment ratio); higher = better substrate or ligand; peptides without Tyr show the background
Lab note: anything with phosphorylation enrichment at or over 0.4 counts as Met; the rest go in Not met.

The following sequences have reported results that may help.
- sequenceContent: "KKMKRYHVGKV [HARS2_Y151]"
  class: "Not met"
- sequenceContent: "FLGRDYLETLM [DUS3L_Y610_YF]"
  class: "Met"
- sequenceContent: "REQREYLDQLN [CCDC88B_Y1277]"
  class: "Met"

Qu. Check if phosphorylation enrichment >= 0.4 (inclusive). Item: LERFIYNREEF [HLA-DPB1_Y59_F64Y_YF]
Ans. Met

Qu. Check if phosphorylation enrichment >= 0.4 (inclusive). Item: SLLTDYSPQLQ [OTC_Y345]
Ans. Met

Qu. Check if phosphorylation enrichment >= 0.4 (inclusive). Item: DVFRQYASLTG [GANAB_Y379]
Ans. Not met

Qu. Check if phosphorylation enrichment >= 0.4 (inclusive). Item: SQSPHYFRSGR [GPATCH8_Y1038]
Ans. Met

Qu. Check if phosphorylation enrichment >= 0.4 (inclusive). Item: NTEGGYRCICA [CRELD1_Y328]
Ans. Met

Qu. Check if phosphorylation enrichment >= 0.4 (inclusive). Item: LDLPGYCLLRE [CCDC116_Y291_P293L]
Ans. Met

Qu. Check if phosphorylation enrichment >= 0.4 (inclusive). Item: IVLRSYPASGH [NID2_Y449]
Ans. Met

Qu. Check if phosphorylation enrichment >= 0.4 (inclusive). Item: ALTDNYMFVVI [HAGH_Y61_L64V_YF]
Ans. Met

Qu. Check if phosphorylation enrichment >= 0.4 (inclusive). Item: NVADHYGVYKP [ATP6V0D2_Y271]
Ans. Met

Qu. Check if phosphorylation enrichment >= 0.4 (inclusive). Item: DGYTDYAEFAK [MCFD2_Y138_I136T]
Ans. Met

Qu. Check if phosphorylation enrichment >= 0.4 (inclusive). Item: GEKKAYVRLAP [RPL23A_Y137]
Ans. Not met

Qu. Check if phosphorylation enrichment >= 0.4 (inclusive). Item: VAFLFYKSIGP [ADGRL4_Y302_V300L_YF]
Ans. Met

Qu. Check if phosphorylation enrichment >= 0.4 (inclusive). Item: GFVEDYRPPFY [ACVRL1_Y421_I417F]
Ans. Met

Qu. Check if phosphorylation enrichment >= 0.4 (inclusive). Item: IHADIYRWFNI [MARS1_Y344]
Ans. Met

----------
Molecular target: EPHB2 (UniProt P29323)
Sequence (P29323 whole entry, looked up): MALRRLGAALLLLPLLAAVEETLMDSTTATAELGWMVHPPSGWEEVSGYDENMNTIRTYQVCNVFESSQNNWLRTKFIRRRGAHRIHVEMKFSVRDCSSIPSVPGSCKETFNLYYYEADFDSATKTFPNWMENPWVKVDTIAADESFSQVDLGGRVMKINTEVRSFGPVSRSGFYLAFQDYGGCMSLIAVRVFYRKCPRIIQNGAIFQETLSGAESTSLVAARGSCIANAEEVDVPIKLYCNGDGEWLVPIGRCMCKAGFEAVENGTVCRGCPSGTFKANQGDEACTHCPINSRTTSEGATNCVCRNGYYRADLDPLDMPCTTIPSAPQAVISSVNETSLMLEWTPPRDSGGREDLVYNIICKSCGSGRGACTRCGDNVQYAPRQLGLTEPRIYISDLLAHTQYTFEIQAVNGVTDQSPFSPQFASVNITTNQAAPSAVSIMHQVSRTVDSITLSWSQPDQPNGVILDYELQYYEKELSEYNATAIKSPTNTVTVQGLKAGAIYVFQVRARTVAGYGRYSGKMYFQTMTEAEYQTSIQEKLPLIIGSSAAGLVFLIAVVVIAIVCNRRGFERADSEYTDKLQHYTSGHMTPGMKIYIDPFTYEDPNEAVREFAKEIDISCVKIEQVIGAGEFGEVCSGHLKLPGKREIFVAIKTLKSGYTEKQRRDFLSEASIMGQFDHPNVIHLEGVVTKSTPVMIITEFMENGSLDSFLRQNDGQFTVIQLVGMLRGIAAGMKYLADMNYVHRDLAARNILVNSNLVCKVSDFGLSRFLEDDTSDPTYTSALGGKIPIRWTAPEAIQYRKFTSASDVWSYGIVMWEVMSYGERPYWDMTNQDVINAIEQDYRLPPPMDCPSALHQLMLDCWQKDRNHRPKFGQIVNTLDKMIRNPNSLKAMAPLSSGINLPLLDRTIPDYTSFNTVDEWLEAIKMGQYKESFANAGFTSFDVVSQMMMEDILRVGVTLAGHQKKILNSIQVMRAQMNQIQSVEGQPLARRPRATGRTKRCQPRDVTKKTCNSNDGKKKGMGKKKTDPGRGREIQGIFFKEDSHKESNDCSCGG
Experiment: phosphorylation enrichment, bacterial display (enrichment ratio); higher = better substrate or ligand; peptides without Tyr show the background
Each record's class is read off its phosphorylation enrichment using these ranges: low bracket = under 0.5, middle bracket = from 0.5 up to 0.8, high bracket = 0.8 and over

- sequenceContent: "KLPFLYDDPFS [GPX2_Y127_P126L_YF]"
  class: "high bracket"
- sequenceContent: "STEAIYRRYSK [SH3PXD2B_Y42]"
  class: "low bracket"
- sequenceContent: "FVHDNYVIWRT [CPS1_Y1450_R1453W]"
  class: "high bracket"
- sequenceContent: "SERNNYSRVAN [CWC22_Y797]"
  class: "middle bracket"
- sequenceContent: "ICRWVYPLTPE [EIF2B5_Y319_R315C]"
  class: "middle bracket"

Please find the next sequence below.
Qu. The entry to classify is EIVYVYVKKRS [DNAI2_Y7] ; which class holds it?
Ans. middle bracket

----------
Biological target: FGFR3 (UniProt P22607)
Sequence (P22607 whole entry, looked up): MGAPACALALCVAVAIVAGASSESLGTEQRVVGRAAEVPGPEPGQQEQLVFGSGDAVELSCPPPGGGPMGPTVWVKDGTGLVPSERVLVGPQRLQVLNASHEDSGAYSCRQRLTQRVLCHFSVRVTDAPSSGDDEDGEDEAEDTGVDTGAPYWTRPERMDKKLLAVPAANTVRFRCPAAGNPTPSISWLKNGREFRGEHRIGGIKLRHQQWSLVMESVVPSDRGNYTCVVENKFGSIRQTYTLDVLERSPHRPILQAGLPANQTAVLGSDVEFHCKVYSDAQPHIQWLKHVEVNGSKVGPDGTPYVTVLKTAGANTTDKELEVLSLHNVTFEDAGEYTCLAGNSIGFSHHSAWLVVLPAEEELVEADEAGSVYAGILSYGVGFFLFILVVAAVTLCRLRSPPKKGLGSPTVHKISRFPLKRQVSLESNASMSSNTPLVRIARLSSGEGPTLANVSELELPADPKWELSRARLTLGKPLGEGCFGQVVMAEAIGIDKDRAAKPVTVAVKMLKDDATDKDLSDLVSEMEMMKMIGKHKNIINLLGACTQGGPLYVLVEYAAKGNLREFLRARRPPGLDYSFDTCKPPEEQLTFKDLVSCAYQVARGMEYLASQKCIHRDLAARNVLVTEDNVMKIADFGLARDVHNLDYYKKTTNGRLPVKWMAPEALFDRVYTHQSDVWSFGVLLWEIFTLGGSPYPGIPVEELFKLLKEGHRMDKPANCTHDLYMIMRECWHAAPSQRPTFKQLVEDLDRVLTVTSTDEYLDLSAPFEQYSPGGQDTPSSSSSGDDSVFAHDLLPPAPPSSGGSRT
Assay: phosphorylation enrichment, bacterial display (enrichment ratio); higher = better substrate or ligand; peptides without Tyr show the background
The sequences listed here are annotated with their phosphorylation enrichment.

In the examples that follow, each entry is paired with its recorded phosphorylation enrichment.
- sequenceContent: "TIMTDYNPNYC [ALK_Y1092]"
  phosphorylation enrichment: 0.904
- sequenceContent: "GAMGHYVLAER [HFE_Y342]"
  phosphorylation enrichment: 0.446
- sequenceContent: "LLILEYAKFGS [RET_Y806_V804L_YF]"
  phosphorylation enrichment: 1.38
- sequenceContent: "PCPANYFAFKI [FAM3D_Y65]"
  phosphorylation enrichment: 7.65

// recorded phosphorylation enrichment for IGNGFYFRVFS [MYBPC3_Y1136_YF] : 0.756

// recorded phosphorylation enrichment for ANNEYYFQVCA : 7.38

// recorded phosphorylation enrichment for VHVEVYDRPSP : 0.761

// recorded phosphorylation enrichment for FSSLGYPPPEG [ZSWIM4_Y87_YF] : 0.704

// recorded phosphorylation enrichment for LGNIVYSSLCG [BCOR_Y90_P85L] : 1.54

----------
Biological target: MERTK (UniProt Q12866)
Sequence (Q12866 whole entry, looked up): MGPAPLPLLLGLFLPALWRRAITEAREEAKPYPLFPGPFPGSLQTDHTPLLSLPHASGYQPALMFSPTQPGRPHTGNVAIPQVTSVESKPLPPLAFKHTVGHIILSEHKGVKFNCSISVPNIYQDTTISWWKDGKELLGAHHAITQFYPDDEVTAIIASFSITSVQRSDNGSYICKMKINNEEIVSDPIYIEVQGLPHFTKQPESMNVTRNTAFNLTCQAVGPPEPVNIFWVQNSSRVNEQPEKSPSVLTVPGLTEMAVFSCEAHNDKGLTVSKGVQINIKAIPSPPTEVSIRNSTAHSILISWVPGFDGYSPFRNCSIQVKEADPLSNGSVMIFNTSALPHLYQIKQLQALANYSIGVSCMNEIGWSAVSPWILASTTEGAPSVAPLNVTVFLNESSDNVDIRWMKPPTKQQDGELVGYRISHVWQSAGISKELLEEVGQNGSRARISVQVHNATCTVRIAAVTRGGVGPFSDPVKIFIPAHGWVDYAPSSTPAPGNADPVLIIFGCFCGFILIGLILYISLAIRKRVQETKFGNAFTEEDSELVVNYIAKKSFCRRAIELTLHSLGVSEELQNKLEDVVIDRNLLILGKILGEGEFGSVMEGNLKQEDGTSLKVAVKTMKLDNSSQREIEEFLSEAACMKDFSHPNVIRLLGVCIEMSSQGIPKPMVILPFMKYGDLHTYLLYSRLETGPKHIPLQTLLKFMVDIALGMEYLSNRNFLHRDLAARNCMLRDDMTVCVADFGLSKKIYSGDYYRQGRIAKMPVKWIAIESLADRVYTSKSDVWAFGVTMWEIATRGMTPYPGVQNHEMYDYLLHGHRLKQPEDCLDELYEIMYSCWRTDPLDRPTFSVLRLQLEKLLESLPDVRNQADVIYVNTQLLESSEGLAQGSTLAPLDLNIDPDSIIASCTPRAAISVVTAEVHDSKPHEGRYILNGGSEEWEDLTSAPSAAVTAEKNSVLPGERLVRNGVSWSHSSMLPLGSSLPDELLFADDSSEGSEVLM
Test: phosphorylation enrichment, bacterial display (enrichment ratio); higher = better substrate or ligand; peptides without Tyr show the background
Lab note: anything with phosphorylation enrichment at or over 0.8 counts as yes (1); the rest go in no (0).

The following sequences have reported results that may help.
- sequenceContent: "TTGGFYSFGGG [KRT24_Y120_A115T_YF]"
  class: "yes (1)"
- sequenceContent: "ALTDNYMFVVI [HAGH_Y61_L64V_YF]"
  class: "yes (1)"
- sequenceContent: "SQKRKYIEIDS [SDAD1_Y580]"
  class: "no (0)"
- sequenceContent: "GDFFRYLAEVA [YWHAG_Y133_YF]"
  class: "no (0)"
- sequenceContent: "ETKKQYNSFTF [TMED3_Y85_D86N_YF]"
  class: "no (0)"
- sequenceContent: "SFLFRYADDSF [RAB3C_Y50]"
  class: "no (0)"
- sequenceContent: "GLAKEYTDPET [CSNK1G2_Y195_I196T]"
  class: "no (0)"
- sequenceContent: "KFDLMYAKWAF [TUBA3E_Y399]"
  class: "yes (1)"

Qu. Check if phosphorylation enrichment >= 0.8 (inclusive). Item: PGGKIYISPLK [RB1_Y805_N803K]
Ans. no (0)

Qu. Check if phosphorylation enrichment >= 0.8 (inclusive). Item: STEAIYWRFSK [SH3PXD2B_Y42_R43W_YF]
Ans. yes (1)

Qu. Check if phosphorylation enrichment >= 0.8 (inclusive). Item: DVAKEYGHLLP [HRC_Y99_S96A]
Ans. no (0)

Qu. Check if phosphorylation enrichment >= 0.8 (inclusive). Item: FVHDNYVIWRT [CPS1_Y1450_R1453W]
Ans. yes (1)

Qu. Check if phosphorylation enrichment >= 0.8 (inclusive). Item: KDQGTYEDFVE [MYL6_Y86_YF]
Ans. yes (1)
